# tested-target: HER2 expressed on the surface of cells (human, UniProt P04626 23-1255)
# assay-info: cell-based or functional assay
Please mark Criterion met if the recorded growth inhibition IC50 (potency), BT474 cells + EGF is equal to or greater than 2 nM, and Criterion not met if it falls below.

1. Variant 14020 (antibody, name in Kabat numbering, V domains shown, also called v14020) VH: EVQLVESGGGLVQPGGSLRLSCAASGFTFQDYTMDWVRQAPGKGLEWVGDVNPNSGGSIYNQRFKGRFTFSVDRSKNTLYLQMNSLRAEDTAVYYCARNLGPWFYFDYWGQGTLVTVSS VL: DIQMTQSPSSLSASVGDRVTITCKASQDVSIGVAWYQQKPGKAPKLLIYSASYRYTGVPSRFSGSGSGTDFTLTISSLQPEDFATYYCQQYYIYPYTFGQGTKVEIKR
Criterion not met
2. Variant 12471 (antibody, human IgG1, kappa, name in Kabat numbering, V domains shown, Kabat numbering; also called v12471; FSA version of v9996) VH: EVQLVESGGGLVQPGGSLRLSCAASGFTFADYTMDWVRQAPGKGLEWVGDVNPNSGGSIYNQRFKGRFTFSVDRSKNTLYLQMNSLRAEDTAVYYCARNLGPSFYFDYWGQGTLVTVSS VL: DIQMTQSPSSLSASVGDRVTITCKASQDVSIGVAWYQQKPGKAPKLLIYSASYRYTGVPSRFSGSGSGTDFTLTISSLQPEDFATYYCQQYYIYPATFGQGTKVEIKR
Criterion not met
3. Variant 14022 (antibody, name in Kabat numbering, V domains shown, also called v14022) VH: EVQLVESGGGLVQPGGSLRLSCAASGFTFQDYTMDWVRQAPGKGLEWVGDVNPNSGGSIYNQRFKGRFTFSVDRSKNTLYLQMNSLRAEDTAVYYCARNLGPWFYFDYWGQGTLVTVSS VL: DIQMTQSPSSLSASVGDRVTITCKASQDVSIGVAWYQQKPGKAPKLLIWSASYRYTGVPSRFSGSGSGTDFTLTISSLQPEDFATYYCQQYYIYPYTFGQGTKVEIKR
Criterion met
4. Variant 14023 (antibody, name in Kabat numbering, V domains shown, also called v14023) VH: EVQLVESGGGLVQPGGSLRLSCAASGFTFQDYTMDWVRQAPGKGLEWVGDVNPNSGGSIYNQRFKGRFTFSVDRSWNTLYLQMNSLRAEDTAVYYCARNLGPWFYFDYWGQGTLVTVSS VL: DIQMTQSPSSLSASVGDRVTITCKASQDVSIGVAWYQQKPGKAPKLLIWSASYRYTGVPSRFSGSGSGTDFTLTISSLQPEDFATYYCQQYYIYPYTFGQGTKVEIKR
Criterion not met
5. Variant 14019 (antibody, name in Kabat numbering, V domains shown, also called v14019) VH: EVQLVESGGGLVQPGGSLRLSCAASGFTFQDYTMDWVRQAPGKGLEWVGDVNPNSGGSIYNQRFKGRFTFSVDRSWNTLYLQMNSLRAEDTAVYYCARNLGPSFYFDYWGQGTLVTVSS VL: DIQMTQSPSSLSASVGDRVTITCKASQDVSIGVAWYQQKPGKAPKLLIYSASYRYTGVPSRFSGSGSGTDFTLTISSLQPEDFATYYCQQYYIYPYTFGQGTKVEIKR
Criterion not met
6. Variant 14018 (antibody, name in Kabat numbering, V domains shown, also called v14018) VH: EVQLVESGGGLVQPGGSLRLSCAASGFTFTDYTMDWVRQAPGKGLEWVGDVNPNSGGSIYNQRFKGRFTFSVDRSWNTLYLQMNSLRAEDTAVYYCARNLGPSFYFDYWGQGTLVTVSS VL: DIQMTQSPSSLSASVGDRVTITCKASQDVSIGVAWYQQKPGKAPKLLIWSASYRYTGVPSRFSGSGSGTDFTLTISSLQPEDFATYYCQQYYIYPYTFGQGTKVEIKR
Criterion not met
